Tested on: 4 PI3K isoforms (Human recombinant GST-PI3K)
Test: PI3K scintillation proximity assay, best IC50 obtained with the four isoforms (alpha, beta, delta, gamma)
Assay type: biochemical
Settings: best IC50 obtained with the four isoforms of PI3K; read-out: Best potency measured on the 4 PI3K isoforms
pIC50: −log10 of the molar value.
Listed here are compounds together with their documented pIC50.

compound	pIC50
O=C(c1nn(-c2ccc3nn(Cc4ccccc4)cc3c2)c2c1CS(=O)(=O)c1ccccc1-2)N1CCOCC1 [Example 204]	5.68
O=C(c1nn(-c2cccc(CN3CCS(=O)(=O)CC3)c2)c2c1CS(=O)(=O)c1ccccc1-2)N1CCOCC1 [Example 247]	6.19
O=C(NC1CCCCC1)N1CCC(n2nc(C(=O)N3CCOCC3)c3c2-c2ccccc2S(=O)(=O)C3)C1 (centres unmarked) [Example 276]	6.06
COCCN1CCC(n2nc(C(=O)N3CCOCC3)c3c2-c2ccccc2S(=O)(=O)C3)CC1 [Example 101]	5.72
COC(=O)CCN1CCC[C@H](n2nc(C(=O)N3CCOCC3)c3c2-c2ccccc2S(=O)(=O)C3)C1 (single isomer, unassigned) [Example 433]	7.32
O=C(c1nn(-c2cccc(Cl)c2)c2c1CS(=O)(=O)c1ccccc1-2)N1CCOCC1 [Example 26]	6.36
O=C(c1nn(C2CCCN(CCN3CCCC(F)(F)C3)C2)c2c1CS(=O)(=O)c1ccccc1-2)N1CCOCC1 (centres unmarked) [Example 284]	7.08
Cc1cccc(-n2nc(C(=O)N3CCOCC3)c3c2-c2ccccc2S(=O)(=O)C3)c1 [Example 6]	6.03
